Overview of recorded kinase still bound, per cent of control for various compounds
- studySystem: BMPR2 (human) (UniProt Q13873)
- Sequence (Q13873 whole entry, looked up): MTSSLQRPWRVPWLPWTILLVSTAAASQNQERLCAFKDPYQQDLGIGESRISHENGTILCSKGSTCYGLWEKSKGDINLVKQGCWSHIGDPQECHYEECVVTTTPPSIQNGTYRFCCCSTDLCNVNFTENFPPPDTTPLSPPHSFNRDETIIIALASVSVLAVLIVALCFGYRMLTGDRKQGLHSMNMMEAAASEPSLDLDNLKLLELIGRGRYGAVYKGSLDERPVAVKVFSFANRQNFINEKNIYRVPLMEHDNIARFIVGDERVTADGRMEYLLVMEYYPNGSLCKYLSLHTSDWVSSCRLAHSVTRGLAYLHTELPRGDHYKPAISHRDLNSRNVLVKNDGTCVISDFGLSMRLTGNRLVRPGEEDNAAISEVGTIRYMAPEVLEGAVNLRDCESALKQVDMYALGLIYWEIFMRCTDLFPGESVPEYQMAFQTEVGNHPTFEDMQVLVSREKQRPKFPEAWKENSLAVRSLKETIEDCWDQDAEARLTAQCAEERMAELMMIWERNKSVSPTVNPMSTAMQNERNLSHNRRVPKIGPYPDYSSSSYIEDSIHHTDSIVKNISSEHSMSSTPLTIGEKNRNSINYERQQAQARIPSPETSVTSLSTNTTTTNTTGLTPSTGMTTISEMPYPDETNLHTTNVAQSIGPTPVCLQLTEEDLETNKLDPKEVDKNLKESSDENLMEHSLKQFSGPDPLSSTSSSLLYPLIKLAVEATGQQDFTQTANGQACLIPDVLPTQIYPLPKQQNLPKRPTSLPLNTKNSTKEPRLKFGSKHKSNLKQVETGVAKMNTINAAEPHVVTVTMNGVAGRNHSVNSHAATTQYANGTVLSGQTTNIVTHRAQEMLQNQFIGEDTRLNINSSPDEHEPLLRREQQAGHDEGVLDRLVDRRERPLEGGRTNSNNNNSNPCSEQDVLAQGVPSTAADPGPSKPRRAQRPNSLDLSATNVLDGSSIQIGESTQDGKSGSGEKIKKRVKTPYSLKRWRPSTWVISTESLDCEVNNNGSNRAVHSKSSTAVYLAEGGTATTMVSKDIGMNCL
- runDescription: KINOMEscan competition binding
- particulars: compound 10.0 µM
Write the answer as a number in %, unit excluded.

INSERT INTO assay_data (recordsmiles, assayendpoint, recordedvalue) VALUES
  ('CN1CCN(c2ccc(C(=O)Nc3ncc4c(n3)N(C)c3ccccc3C(=O)N4C)cc2)CC1', 'kinase still bound, per cent of control', 100),
  ('CN1C(=O)c2ccccc2N(C)c2nc(NS(=O)(=O)c3ccc(N)cc3)ncc21', 'kinase still bound, per cent of control', 100),
  ('CN1C(=O)[C@H]2CCC[C@H]2N(C2CCCC2)c2nc(Nc3ccc(C(N)=O)cc3)ncc21', 'kinase still bound, per cent of control', 23),
  ('COc1cc(N2CCC(O)CC2)ccc1Nc1ncc2c(n1)N1CCc3cccc(c31)C(=O)N2C', 'kinase still bound, per cent of control', 100);

With those in mind, consider the next compound.
[in] Tell me its kinase still bound, per cent of control given Nc1cccc(-c2cc(/C=C3\SC(=O)NC3=O)c[nH]c2=O)c1 as the entry.
[out] 29
